target: dsDNA; assay type: binding; conditions: 12-mer dsDNA, pH 7, Cy3B label on peptide; read-out: Kd(app.)
property: pKd
Value format note: pKd is -log10 of concentration (mol/L); just state the number.

Prompt line: Which pKd value is on record for SIVHRKCF [8-Actin-C, 8-amino acid peptide from the C-terminus of β-actin] ?
Response line: 8.30

---

target: dsDNA; assay type: binding; settings: 12-mer dsDNA, pH 8, peptide labeled at Cys5′ with Cy3B; read-out: Kd(app.)
property: Kd (µM)
Note: unit µM is implicit; provide only the numeric part.

Prompt line: Item SFRRCGLRQVK [Random peptide, reference compound] has what recorded Kd?
Response line: 0.646

Provenance of the data: patent US10065989B2
